Each recorded value in this set is attributed to patent US20210340211A1.

We begin with a simple list: items and their reported logIC50 (inhibition of GIP(1-42) induced cAMP accumulation).
Target: T1, human GIP receptor (human, UniProt P48546 22-466)
T1 sequence (looked up): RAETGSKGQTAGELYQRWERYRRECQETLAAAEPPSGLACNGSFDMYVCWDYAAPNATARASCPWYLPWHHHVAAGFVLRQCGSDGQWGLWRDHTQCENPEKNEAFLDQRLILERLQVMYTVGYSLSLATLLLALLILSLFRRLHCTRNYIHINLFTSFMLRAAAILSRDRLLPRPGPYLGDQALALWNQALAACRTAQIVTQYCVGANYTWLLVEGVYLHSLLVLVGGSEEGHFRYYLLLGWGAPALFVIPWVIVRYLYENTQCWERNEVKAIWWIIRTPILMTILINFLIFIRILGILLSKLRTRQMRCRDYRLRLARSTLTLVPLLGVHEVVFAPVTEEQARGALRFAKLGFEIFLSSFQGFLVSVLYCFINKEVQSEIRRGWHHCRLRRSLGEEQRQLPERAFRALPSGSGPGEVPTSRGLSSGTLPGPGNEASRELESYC
Assay: cell-based or functional assay
Ends that are not written are not given here.
Measured Endpoint: logIC50 (inhibition of GIP(1-42) induced cAMP accumulation)

- Binder: "AEGTFISDYSIAMDKIHQQDFVNWLLAQK-NH2 (also called human GIP(2-30)NH2; hGIP(2-30)) [GIP(2-30)NH2]"
  Val: -7.66
- Binder: "SDYSIAMDKIHQQDFVNWLLAQK-NH2 (also called human GIP(8-30)NH2; hGIP(8-30)) [GIP(8-30)NH2]"
  Val: -6.88
- Binder: "FISDYSIAMDKIHQQDFVNWLLAQK-NH2 (also called human GIP(6-30)NH2; hGIP(6-30)) [GIP(6-30)NH2]"
  Val: -6.47
- Binder: "EGTFISDYSIAMDKIHQQDFVNWLLAQK-NH2 (also called human GIP(3-30)NH2; hGIP(3-30)NH2) [GIP(3-30)NH2]"
  Val: -7.93
- Binder: "DYSIAMDKIHQQDFVNWLLAQK-NH2 (also called human GIP(9-30)NH2; hGIP(9-30)) [GIP(9-30)NH2]"
  Val: -6.35
- Binder: "GTFISDYSIAMDKIHQQDFVNWLLAQK-NH2 (also called human GIP(4-30)NH2; hGIP4-30) [GIP(4-30)NH2]"
  Val: -6.97
- Binder: "TFISDYSIAMDKIHQQDFVNWLLAQK-NH2 (also called human GIP(5-30)NH2; hGIP5-30) [GIP(5-30)NH2]"
  Val: -7.92
